kon overview
target_system: T1, human GFRα3 expressed with a C-terminal myc-myc-hexahistidine tag (human, UniProt O60609 32-374, biotinylated (sites not given) in ELISA format 2 and in the Octet cross-competition; not in SPR)
T1 construct: also called hGFRα3-mmh; hGFRα3-mmH
T1 sequence (O60609 other isoform, or with tags, fused parts or gaps limits assumed): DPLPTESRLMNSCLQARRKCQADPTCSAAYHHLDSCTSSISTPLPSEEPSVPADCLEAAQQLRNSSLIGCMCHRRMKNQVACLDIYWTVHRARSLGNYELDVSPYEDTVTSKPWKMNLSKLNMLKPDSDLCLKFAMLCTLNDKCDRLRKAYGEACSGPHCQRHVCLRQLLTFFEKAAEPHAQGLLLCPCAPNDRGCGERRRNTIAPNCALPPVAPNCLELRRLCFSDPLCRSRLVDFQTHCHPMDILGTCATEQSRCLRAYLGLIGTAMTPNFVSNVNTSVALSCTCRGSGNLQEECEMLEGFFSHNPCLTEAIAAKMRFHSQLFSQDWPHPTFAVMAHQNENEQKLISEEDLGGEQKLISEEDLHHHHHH
assay_procedure: SPR, Ab captured, 37C

| binder | kon [M⁻¹ s⁻¹] |
| --- | --- |
| H4H2292S (antibody, human IgG4, V domains shown, human IgG4 Fc (H4H)) VH: EVQLVESGGGVVQPGRSLRLSCAASGFTFSSYGMHWVRQAPGKGLEWVSFIWYDGSNKYYADSVKGRFTISRDNSKNTLYLQMNSLTAEDTAVYYCARRGILTGTTAFDIWGQGTMVTVSS VL: DIQMTQSPSSLSASVGDRVTITCRASQSISSYLNWYQQKPGKAPKLLIYAASSLQSGVPSRFSGSGSGTDFTLTIRSLIPEDFATYYCQQTYNTPFTFGPGTKVEIK | 128000 |
| H4H2342P (antibody, human IgG4, V domains shown, human IgG4 Fc (H4H)) VH: EVQLLESGGGLVQPGGSLRLSCAASGFTFSTYAMSWVRQAPGKGLEWVSAIRGNGVNTYYGDSMKGRFTISRDNSKDTLYLQMNSLRAEDTAVYYCAKNKWELLVFEYWGQGTLVTVSS VL: DIQMTQSPSSLSASVGDRVTITCRASQDISNYLAWYQQKPGKVPKLLIYAASTLQSGVPFRFSGSGSGTDFTLTISSLQPEDVATYYCQKYNSAPPFGPGTKVDIK | 330000 |
| H4H2350P (antibody, human IgG4, V domains shown, human IgG4 Fc (H4H)) VH: QVQLQESGPGLVKPSETLSLTCTVSGGSISTYYWSWFRQPPGKGLEWIGYIYYSGSTNHNPSLKSRVTISVDTSKNQFSLKLRSVTAADTAVYYCARVGPVGWGSWGNFDYWGQGTLVTVSS VL: DIQLTQSPSFLSASVGDRVTITCWASQGISSYLAWSQQKPGKAPKLLIYAASTLQSGVPSRFSGSGSGTEFTLTISSLQPEDFATYYCQQLNSYPWTFGQGTKVEIK | 134000 |
| H4H2345S (antibody, human IgG4, V domains shown, human IgG4 Fc (H4H)) VH: EVQLVESGGGLVRPGRSLRLSCAASGFTFDNYAMHWVRQVPGKGLEWVSGITWNSVSLGYADSVKGRFTISRDNAQNSLYLQMNSLRTVDTALYYCAKDRWGGSYYFDFWGQGTLVTVSS VL: DIVMTQSPSSLSASVGDRVTITCRASQGISNYLAWYQQKPGKVPKLLIYSASTLQSGVPSRFSGSGSGTDFTLTISNLQPEDFATFFCQKYNSAPTFGGGTKVEIK | 184000 |
| H4H2352S (antibody, human IgG4, V domains shown, human IgG4 Fc (H4H); also called H4H2352S-1) VH: EVQLVQSGAEVKKPGASVKVSCKASGYTFTNYGITWVRQAPGQGLEWMGWISAYNGNTGYAQKFQGRVTMTTDTSTSTAYMELRSLRSDDTAVYYCAREDYDFWRAFDIWGQGTMVTVSS VL: EIVLTQSPGTLSLSPGERATLSCRASQSVSSTYLAWLQQKPGQAPRLLIYGASSRATGIPDRFSGSGSGTDFTLTINRLEPEDFAVYYCQQYAYSPYTFGQGTKLEIK | 1.18e+06 |
